Examples of compounds with documented pIC50 follow.
Target: Kras and SOS1 (biotin-tagged human Kras loaded with GDP, His-tagged human SOS1) (Homo sapiens, UniProt P01116, G12D)
Construct: made in house; host or cells: E. coli (stated for Kras only)
Sequence (P01116 1-188 isoform P01116-2 G12D): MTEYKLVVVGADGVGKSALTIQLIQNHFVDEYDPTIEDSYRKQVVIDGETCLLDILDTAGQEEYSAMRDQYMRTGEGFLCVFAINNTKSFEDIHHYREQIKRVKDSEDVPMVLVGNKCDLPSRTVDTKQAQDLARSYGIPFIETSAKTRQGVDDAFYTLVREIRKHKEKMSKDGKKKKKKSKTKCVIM
Test: Protein-protein interaction inhibition between Kras and SOS1 (KrasGl2D-SOS PPI) using AlphaScreen
Assay type: binding
Settings: AlphaScreen; biotin-tagged human Kras loaded with GDP, His-tagged human SOS1; read-out: KRAS G12D-SOS PPI IC50
Positions of bridges follow the written chain, without caps; N, C: chain ends. Non-standard residues stand in square brackets, D forms with d. Residues, ends and D or L forms follow the SMILES beside them. *: point of attachment. Phe(3-I) = N[C@@H](Cc1cccc(I)c1)C(=O)O; NMeY = CN[C@@H](Cc1ccc(O)cc1)C(=O)O; NMeD = CN[C@@H](CC(=O)O)C(=O)O; NMeL = CN[C@@H](CC(C)C)C(=O)O; NMeAib = CNC(C)(C)C(=O)O; Piperidide = C1CCN(*)CC1; Pra = C#CC[C@H](N)C(=O)O; Aze = O=C(O)[C@@H]1CCN1; CF3 = FC(F)(F)*; Sar = CNCC(=O)O
Scale explanation: pIC50 corresponds to minus log10 of a concentration expressed in moles per litre.

Return pIC50 (reported value) for this compound: C#CC[C@@H]1NC(=O)[C@H](Cc2cccc(I)c2)NC(=O)CN(C)C(=O)[C@H](Cc2ccc(OC(F)(F)F)cc2)N(C)C(=O)[C@@H]2CCN2C(=O)CN(C)C(=O)[C@H]([C@@H](C)CC)NC(=O)[C@H](CC(C)C)N(C)C(=O)C[C@@H](C(=O)N2CCCCC2)N(C)C(=O)[C@H](CC(C)C)NC(=O)C(C)(C)N(C)C1=O [Compound 1298] ([NMeL]I[Sar][Aze][NMeY](CF3)[Sar][Phe(3-I)][Pra][NMeAib]L[NMeD]-Piperidide; lactam N-11)
7.55
